System: T-47D breast
Assay: NCI tumour cell line growth inhibition, 48 h
Measured GI50, listed per entry.

Example entries begin here.
MOLECULE	TARGET	GI50
CNCCNc1nc2ccccc2c2c(=O)c3cccc(C)c3sc12	T-47D breast	0.876 µM
CC1COCCN1CC#CCOC(=O)c1cc2ccccc2oc1=O (stereo not drawn)	T-47D breast	> 100 µM
N#Cc1c(N)c(C#N)c2c(c1-c1ccc(Cl)cc1)COc1ccc(F)cc1-2	T-47D breast	> 50 µM
Cc1cc2c(cc1Cl)N1C(=O)NS(=O)(=O)N=C1NS2(=O)=O	T-47D breast	> 100 µM
OCc1ccc(N(Cc2ccc(F)cc2)CC2CCC2)cc1Cl	T-47D breast	2.11 µM
CCc1ccc([O-])c(C=NCCCN(C)CCCN=Cc2cc(C)ccc2[O-])c1.[Co+3].[N-]=[N+]=[N-]	T-47D breast	40 µg/mL

q: Output measured GI50 for this item: `CN1CCN(c2ccc(Nc3ncc4cc5n(c4n3)C3(CCCCC3)CNC5=O)nc2)CC1`
a: 4.15 µM

q: Output measured GI50 for this item: `C[C@H](c1ccccc1)N(CCC(=O)O)C(=O)CCN(C(=O)CCN(C(=O)CCN[C@H](C)c1ccccc1)[C@H](C)c1ccccc1)[C@H](C)c1ccccc1`
a: > 100 µM

q: Output measured GI50 for this item: `COc1c2ccccc2c(O)c2c(=O)ccn(C)c12`
a: 31.7 µM

q: Output measured GI50 for this item: `O=C1NC(=O)C(c2c[nH]c3ccccc23)=C1c1ccccc1`
a: > 25 µM

q: Output measured GI50 for this item: `COc1ccc(/C=C2/CN(CCC#N)C/C(=C\c3ccc(OC)cc3)C2=O)cc1`
a: 3.76 µM

q: Output measured GI50 for this item: `N=C1/C(=C2\Nc3ccccc3S2)CC(=O)N1c1ccc(SC(F)F)cc1`
a: 27.8 µM

q: Output measured GI50 for this item: `O=C(Nc1ccccc1)Nc1ccc(Cl)c(Cl)c1`
a: 2.57 µM

----------
Measured TGI, listed per entry.
Test system: HT29 colon
Assay: NCI tumour cell line growth inhibition, 48 h
Please give a number only; it is taken to be in µM.

COMPOUND	UNIT NAME	TGI
COc1cc2c(cc1O)C1CC(CC3CCCCN31)OC(=O)/C=C\c1ccc(O)c-2c1 (stereo not given)	µM	50.4

q: Output measured TGI for this item: `Nc1nc(OCC2CCCCC2)c2[nH]cnc2n1`
a: 48.5

q: Output measured TGI for this item: N#CC1=C(N)OC(c2cccc([N+](=O)[O-])c2)C1(C#N)C#N (stereo not given)
a: 37.2

q: Output measured TGI for this item: `CCOC(=O)c1cc(-c2ccccc2)[nH]c1N/N=C/c1c(Cl)cccc1Cl`
a: 16.3

q: Output measured TGI for this item: `CCc1ccc2c(c1)C(=O)c1c-2n(CCCN)c(=O)c2cc([N+](=O)[O-])ccc12`
a: 2.07

----------
Tested on: 786-0 renal
Assay: NCI tumour cell line growth inhibition, 48 h
OUTCOME MEASURE: TGI (µM)
Please give a number only; it is taken to be in µM.

SMI	TARGET	TGI [µM]
O=c1c2cc(S(=O)(=O)O)ccc2nc(COc2ccc(Oc3ccc(Cl)cc3Cl)cc2)n1C(=S)Nc1ccc(Cl)cc1	786-0 renal	40.4

Next item in the queue.
q: Output measured TGI for this item: `COc1cc(Cn2c(SCC(=O)Nc3ccc(Cl)cc3)nc3ccccc3c2=O)cc(OC)c1OC`
a: 12.3

----------
Measured GI50, listed per entry.
System: CAKI-1 renal
Experiment: NCI tumour cell line growth inhibition, 48 h

Example entries begin here.
SMI	OUTCOME MEASURE	RESULT
COc1cc(Cn2c(SCC(=O)Nc3ccc(Cl)cc3)nc3ccccc3c2=O)cc(OC)c1OC	GI50	11.3 µM
COC(=O)[C@]12CC[C@@H](C)[C@H](C)[C@@H]1C1=CC[C@@H]3[C@@]4(C)CC(=O)[C@H](O)[C@@](C)(CO)[C@@H]4C(=O)C[C@@]3(C)[C@]1(C)CC2	GI50	11.5 µM
CNCCNc1nc2ccccc2c2c(=O)c3cccc(C)c3sc12	GI50	1.16 µM

Next item in the queue.
q: Output measured GI50 for this item: `O=C(CSc1ncc(-c2ccccc2)n1-c1ccccc1)Nc1ccc(-c2nc3ccccc3s2)cc1`
a: 4.21 µM

----------
Test system: MDA-MB-231 breast
Assay: NCI tumour cell line growth inhibition, 48 h
Measured TGI, listed per entry.

COMPOUND	TGI
CCN(CCO)CCCOc1ccc2c(Nc3cc(CC(=O)Nc4cccc(F)c4)[nH]n3)ncnc2c1	> 51.5 µM
CC/C(=N/N=C(N)N)c1ccc(NC(=O)Nc2ccc(/C(CC)=N/N=C(N)N)cc2)cc1	28.1 µM
CCc1ccc(/C=C/C(=O)C2CN(CC)CCC2(O)/C=C/c2ccc(CC)cc2)cc1 (stereo not given)	5.07 µM
NNc1ncc2c(n1)-c1ccccc1OC2	> 100 µM

Next item in the queue.
q: Output measured TGI for this item: Cn1cc(C2=C(c3c(S(C)=O)n(C)c4ccccc34)C(=O)NC2=O)c2ccccc21 (stereo not given)
a: > 25 µM

----------
System: KM12 colon
Experiment: NCI tumour cell line growth inhibition, 48 h
Measured GI50, listed per entry.

Example entries begin here.
COMPOUND	GI50
COc1cc(Cn2c(SCC(=O)Nc3ccc(Cl)cc3)nc3ccccc3c2=O)cc(OC)c1OC	32.3 µM
Cc1cc2c(cc1Cl)N1C(=O)NS(=O)(=O)N=C1NS2(=O)=O	> 100 µM
OCc1ccc(N(Cc2ccc(F)cc2)CC2CCC2)cc1Cl	14 µM
FC(F)(F)c1ccc(NCc2nc3ccccc3[nH]2)cc1	29.7 µM

q: Output measured GI50 for this item: Cn1cc(C2=C(c3c(S(C)=O)n(C)c4ccccc34)C(=O)NC2=O)c2ccccc21 (configuration not stated)
a: 7.9 µM

q: Output measured GI50 for this item: `Cc1cc(C#Cc2ccccc2)ccc1-n1c(/C=C/c2cc(O)ccc2O)nc2ccccc2c1=O`
a: 1.65 µM

q: Output measured GI50 for this item: `COc1cc(NC(=O)c2ccccc2Nc2ccnc(C(F)(F)F)c2)cc(OC)c1OC`
a: 54.9 µM

q: Output measured GI50 for this item: COc1cc(NC(C)CCCN2C(=O)c3ccccc3C2=O)c2ncccc2c1OC (configuration not stated)
a: 29.7 µM

q: Output measured GI50 for this item: `N=C1C(c2nc3ccccc3s2)=C(O)CN1c1cc(Cl)cc(Cl)c1`
a: > 100 µM

q: Output measured GI50 for this item: `COc1cc(-c2nn(-c3cccc(NC(=O)CCN4CCN(C)CC4)c3)cc2-c2ccncc2)ccc1Cl`
a: 1.36 µM

q: Output measured GI50 for this item: Cc1cc2c(cc1Cl)SC(C(=O)c1ccc(Cl)c(Cl)c1)NS2(=O)=O (configuration not stated)
a: 30.9 µM

q: Output measured GI50 for this item: CC1(O)COCCCCOc2c(CN)cccc2NC(=O)c2nc(cnc2N)-c2ccc(cc2)S(=O)(=O)C(C)(C)C1 (configuration not stated)
a: 1.43 µM

q: Output measured GI50 for this item: `COc1c2ccccc2c(O)c2c(=O)ccn(C)c12`
a: 4.97 µM

q: Output measured GI50 for this item: `O=C1/C(=C/c2ccccc2[N+](=O)[O-])COc2ccc(O)c(O)c21`
a: 1.55 µM

q: Output measured GI50 for this item: `CC[C@@]1(O)C(=O)NCc2c1cc1n(c2=O)Cc2cc3c(NC(C)=O)cccc3nc2-1`
a: > 100 µM

q: Output measured GI50 for this item: `COc1ccc2nc3cc(Cl)ccc3c(Nc3cc(C(C)C)c(O)cc3C)c2c1`
a: 2.2 µM

q: Output measured GI50 for this item: `CC/C(=N/N=C(N)N)c1ccc(NC(=O)Nc2ccc(/C(CC)=N/N=C(N)N)cc2)cc1`
a: 3.49 µM

----------
Measured GI50, listed per entry.
System: ACHN renal
Assay: NCI tumour cell line growth inhibition, 48 h

SMI	TARGET	GI50
FC(F)(F)c1ccc(NCc2nc3ccccc3[nH]2)cc1	ACHN renal	34.5 µM
O=C(c1ccco1)c1c(C(F)(F)F)n([O-])c2ccc(F)cc2[n+]1=O	ACHN renal	1.33 µM
Oc1cccc(-c2nc(-c3ccccc3)[nH]c2-c2ccncc2)c1	ACHN renal	9.08 µM

q: Output measured GI50 for this item: `CNCCNc1nc2ccccc2c2c(=O)c3cccc(C)c3sc12`
a: 1.7 µM

q: Output measured GI50 for this item: `COc1ccc(-c2nc3sccn3c2-c2ccnc(NCCCNS(=O)(=O)c3ccc(F)cc3)n2)cc1`
a: 1.99 µM

----------
System: NCI-H226 lung
Assay: NCI tumour cell line growth inhibition, 48 h
Measured TGI, listed per entry.
Please give a number only; it is taken to be in µM.

Example entries begin here.
MOLECULE	TGI, µM
COc1ccc(-c2nc3sccn3c2-c2ccnc(NCCCNS(=O)(=O)c3ccc(F)cc3)n2)cc1	5.28
CCCc1n(Cc2ccc3ccccc3n2)cc[n+]1Cc1ccc2ccccc2n1	26.2
Cc1c(O)c(Br)c(C)c(O)c1Br (tested in a mixture with another compound)	14.8

Next item in the queue.
q: Recall the reported TGI of `COC(=O)[C@]12CC[C@@H](C)[C@H](C)[C@@H]1C1=CC[C@@H]3[C@@]4(C)CC(=O)[C@H](O)[C@@](C)(CO)[C@@H]4C(=O)C[C@@]3(C)[C@]1(C)CC2` when tested on NCI-H226 lung.
a: 35.3
